ASSAYED SYSTEM: T1, human HER3-huFc (human, UniProt P21860 20-643)
T1 construct: also called huHER3; not shown: human Fc (huFc)
MEASUREMENT DESCRIPTION: ELISA, 0 freeze-thaw cycles
Listed binders paired with reported EC50
Number only, in µg/mL; omit the unit.

# BINDER, VALUE
rows = [
    ("humanized 3F8 antibody hu3F8-3 (antibody, human IgG1, kappa, V domains shown, also called Clone 3; clone-3) VH: QVQLQESGPGLVKPSETLSLTCTVSGYSITSAYYWNWIRQPFGKGLEWMGYISYDGRNNFNPSLKNRVSISRDTSKNQFSLKLSSVTAADTATYYCARDGDYDYFDYWGQGTTVTVSS VL: DIQMTQSPSSLSASVGDRVTITCRASQDISNYLNWYQQKPGKAPKLLIYYTSILHSGVPSRFSGSGSGTDYTFTISSLQPEDIATYFCQQGDTLPPTFGGGTKLEIKR", 0.0423),
    ("humanized 3F8 antibody hu3F8-1 (antibody, human IgG1, kappa, V domains shown, also called Clone 1; clone-1) VH: QVQLQESGPGLVKPSETLSLTCTVSGYSITSAYYWNWIRQPPGKGLEWIGYISYDGRNNFNPSLKNRVTISVDTSKNQFSLKLSSVTAADTAVYYCARDGDYDYFDYWGQGTTVTVSS VL: DIQMTQSPSSLSASVGDRVTITCRASQDISNYLNWYQQKPGKAPKLLIYYTSILHSGVPSRFSGSGSGTDYTFTISSLQPEDIATYFCQQGDTLPPTFGGGTKLEIKR", 0.0454),
    ("humanized 3F8 antibody hu3F8-2 (antibody, human IgG1, kappa, V domains shown, also called Clone 2; clone-2) VH: QVQLQESGPGLVKPSETLSLTCTVSGYSITSAYYWNWIRQPFGKGLEWMGYISYDGRNNFNPSLKNRVTISRDTSKNQFSLKLSSVTAADTAVYYCARDGDYDYFDYWGQGTTVTVSS VL: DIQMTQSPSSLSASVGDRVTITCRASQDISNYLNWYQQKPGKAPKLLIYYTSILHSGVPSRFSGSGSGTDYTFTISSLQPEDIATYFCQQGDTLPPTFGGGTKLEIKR", 0.0425),
]

Field request: EC50 | item: chimeric 3F8 antibody (antibody, human IgG1, V domains shown, also called ch3F8; Chimeric antibody) VH: DVQLQESGPGLVKPSQSLSLTCSVTGYSITSAYYWNWIRQFPGDKLEWMGYISYDGRNNFNPSLKNRISITRDTSKNQFFLKLNSVTSGDTATYYCARDGDYDYFDYWGQGTTLTVSS VL: DIQMTQTTSSLSASLGDRVTISCRASQDISNYLNWYQQKPDGTFKLLIYYTSILHSGVPSRFSGSGSGTDYSLTISNLEQEDIATYFCQQGDTLPPTFGAGTKLELK
0.0471
